# ASSAYED SYSTEM: T1, corticotropin-releasing hormone (CRH) peptide (human and mouse (same sequence), not fully specified)
# T1 peptide: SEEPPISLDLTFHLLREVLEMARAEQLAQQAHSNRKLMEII
# MEASUREMENT DESCRIPTION: cell-based or functional assay
EXPERIMENTAL ENDPOINT: mCrhr1 Luciferase Reporter Assay IC50 (nM)

# BINDER, EXPERIMENTAL ENDPOINT, UNIT INFO, MEASUREMENT
records = [
    ("PR004290 (antibody, human IgG1, kappa, V domains shown, Series 1; human IgG1 wildtype Fc; also called Hybridoma Clone 28b3) VH: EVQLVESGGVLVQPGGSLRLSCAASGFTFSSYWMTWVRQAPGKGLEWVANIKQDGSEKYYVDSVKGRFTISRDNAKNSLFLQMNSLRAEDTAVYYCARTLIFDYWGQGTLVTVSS VL: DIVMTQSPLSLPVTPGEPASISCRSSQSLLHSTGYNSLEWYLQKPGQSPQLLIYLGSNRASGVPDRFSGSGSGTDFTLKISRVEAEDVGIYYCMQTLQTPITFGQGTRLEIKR", "mCrhr1 Luciferase Reporter Assay IC50", "nM", 13),
    ("PR006745 (antibody, human IgG1, kappa, V domains shown) VH: EVQLVESGGGLVQPGGSLRLSCAASGFTFSDNWMSWVRQAPGKGLEWVANIKQDASENYYVDSVKGRFTISRDNAKNSLYLQMNSLRAEDTAVYYCSRGLALWGWGQGTLVTVSS VL: DIVMTHSPLSLPVTPGDPASISCRSSQSLLHSTGYNYLDWYLQKPGQSPQLLIYLGSNRASGVPDRFSGSGSGTDFTLKFIRVEAEDVGVYYCMQALQTPYTFGQGTKLEIKR", "mCrhr1 Luciferase Reporter Assay IC50", "nM", 76.2),
    ("PR006669 (antibody, human IgG1, kappa, V domains shown) VH: EVQLVESGGGLVQPGGSLRLSCAASGFTFSDNWMSWVRQAPGKGLEWVANIKQDGSENYYVDSVKGRFTISRDNAKNSLYLQMNSLRAEDTAVYYCSRGLALWGWGQGTLVTVSS VL: DIVMTHSPLSLPVTPGDPASISCRSSQSLLHSTGYNYLDWYLQKPGQSPQLLIYLGSNRASGVPDRFSGSGSGTDFTLKFIRVEAEDVGVYYCMQALQTPYTFGQGTKLEIKR", "mCrhr1 Luciferase Reporter Assay IC50", "nM", 28.9),
]
